test: Selectivity index, ratio of CC50 for human A549 cells to IC50 for inhibition of HAdV5 plaque formation in 293beta5 cells; type: functional
Threshold 50. Ratio CC50/IC50 below it: YES. Ratio CC50/IC50 at it or above: NO.

Use these answered entries as a reference point.
| Compound | Cat |
| --- | --- |
| O=C(c1cc2ccccc2o1)N1CCN(C(=O)Nc2ccccc2[N+](=O)[O-])C(c2ccccc2)C1 (stereo unspecified) | NO |
| O=C(c1cc2ccccc2o1)N1CCN(C(=O)Nc2ccc(Cl)cc2)C(c2ccccc2)C1 (stereo unspecified) | NO |
| CC(C)(C)OC(=O)N1CCN(C(=O)Nc2ccc([N+](=O)[O-])cc2)C(c2ccccc2)C1 (stereo unspecified) | YES |
| O=C(c1cc2ccccc2o1)N1CCN(C(=O)Nc2ccc([N+](=O)[O-])cc2)C(c2ccccc2)C1 (stereo unspecified) | NO |
| N#Cc1ccc(NC(=O)N2CCN(C(=O)c3cc4ccccc4o3)CC2c2ccccc2)cc1 (stereo unspecified) | YES |

Ratio CC50/IC50 strictly < 50 for this compound? O=C(c1cc2ccccc2o1)N1CCN(C(=O)Nc2cc(C(F)(F)F)ccc2Cl)C(c2ccccc2)C1 (stereo unspecified)
NO

###

experiment: Cytotoxicity against human A549 cells assessed as cell viability after 48 hrs by Alamar blue assay; type: cell-based
# Satisfied = CC50 at 48 h below 90 µM (exclusive); Not satisfied = CC50 at 48 h at/above 90 µM

| Compound | Cat |
| --- | --- |
| CC1CN(C(=O)OC(C)(C)C)CCN1C(=O)Nc1ccc(Cl)c(C(F)(F)F)c1 (stereo not given) | Satisfied |
| O=C(c1cc2ccccc2o1)N1CCN(C(=O)Nc2ccccc2[N+](=O)[O-])C(c2ccccc2)C1 (stereo not given) | Not satisfied |
| CC(C)(C)OC(=O)N1CCN(C(=O)Nc2ccc([N+](=O)[O-])cc2)C(c2ccccc2)C1 (stereo not given) | Not satisfied |
| CC(C)(C)OC(=O)N1CCN(C(=O)Nc2ccc(Cl)cc2)C(c2ccccc2)C1 (stereo not given) | Satisfied |

Determine whether this compound shows CC50 at 48 h lower than 90 µM (ties excluded): CC1CN(C(=O)c2cc3ccccc3o2)CCN1C(=O)Nc1ccc(F)cc1 (stereo not given)
Not satisfied

Criterion: CC50 at 48 h strictly below 90 µM. Is it met by O=C(c1cc2ccccc2o1)N1CCN(C(=O)Nc2ccc(C(F)(F)F)cc2)C(c2ccccc2)C1 (stereo not given) ?
Satisfied

Bench note: check whether COc1ccc(NC(=O)N2CCN(C(=O)OC(C)(C)C)CC2c2ccccc2)cc1 (stereo not given) shows CC50 at 48 h below 90 µM
Not satisfied

Given the entry CC1CN(C(=O)c2cc3ccccc3o2)CCN1C(=O)Nc1ccc(Cl)cc1 (stereo not given) , would its reported CC50 at 48 h be below 90 µM?
Not satisfied

Please indicate whether the reported CC50 at 48 h of CC1CN(C(=O)c2cc3ccccc3o2)CCN1C(=O)Nc1ccc([N+](=O)[O-])cc1 (stereo not given) is strictly below 90 µM.
Satisfied

###

test: Cytotoxicity against human A549 cells assessed as cell viability after 48 hrs by Alamar blue assay; assay type: cell-based
Below, each of the molecules is paired with its reported CC50 at 48 h value.
Show the value, then the unit it is measured in.

| Molecule | CC50 at 48 h |
| --- | --- |
| CC1CN(C(=O)OC(C)(C)C)CCN1C(=O)Nc1ccc([N+](=O)[O-])cc1 (stereo not given) | 143 µM |

CC50 at 48 h reported for this molecule CC(C)(C)C(=O)N1CCN(C(=O)Nc2ccc(C#N)cc2)C(c2ccccc2)C1 (stereo not given) : 147 µM

Lab book: CC50 at 48 h of N#Cc1ccc(NC(=O)N2CCN(C(=O)c3cc4ccccc4o3)CC2c2ccccc2)cc1 (stereo not given) noted as 200 µM

The reported value for CC1CN(C(=O)OC(C)(C)C)CCN1C(=S)Nc1ccc([N+](=O)[O-])cc1 (stereo not given) in terms of CC50 at 48 h is 26.3 µM

The molecule listed as CC1CN(C(=O)OC(C)(C)C)CCN1C(=O)Nc1cc(C(F)(F)F)ccc1Cl (stereo not given) shows CC50 at 48 h equal to 63.5 µM
